The reported measurements were obtained from PubChem BioAssay.

A collection of compounds and their measured GFP response vs DMSO
assay.explanation: modulators of MEP2-GFP levels in yeast, primary screen, S. cerevisiae, multiplex flow cytometry (AID 1867);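 also: median GFP channel fluorescence of barcode-gated MEP2-GFP cells measured by flow cytometry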
measurement.parameters: S. cerevisiae MEP2-GFP strain, 3 h, at 10 µM, stronger effect = higher value, 100% means same as DMSO wells
Inconclusive results are not listed.
Express it in %; write the number only.

Query: Please give measured GFP response vs DMSO of the following entry: O=c1n(CCCN2CCN(c3cccc(Cl)c3)CC2)nc2ccccn12
Result: 112

Query: Please give measured GFP response vs DMSO of the following entry: COc1cc2c(cc1OC)C(c1cc(OC)c(OC)c(OC)c1)NCC2 (stereo unspecified)
Result: 103

Query: Please give measured GFP response vs DMSO of the following entry: O=[N+]([O-])c1ccc2cn[nH]c2c1
Result: 106

Query: Please give measured GFP response vs DMSO of the following entry: CCOC(=O)c1c(C)oc2cc(Br)c(OC(C)C(=O)OCC)cc12 (stereo unspecified)
Result: 119

Query: Please give measured GFP response vs DMSO of the following entry: O=C1C=CC(=O)C(C2=C3C(=O)N(CCc4ccccc4)CC(=O)N3CCC2)=C1
Result: 103

###

experimental.system: Beta-2 adrenergic receptor (Homo sapiens)
assay.explanation: beta2AR agonists driving receptor internalization, pilot screen, cell-based, FAP fluorogen, flow cytometry, validation set (AID 504459);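 also: agonist-driven loss of surface beta2AR via internalization measured by FAP dye flow cytometry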
measurement.parameters: Am2.2-beta2AR cells, FAP surface receptor flow cytometry; at 10 µM; stronger effect = higher value
reported.metric: response (%)
Express it in %; write the number only.

// solved cases for response follow
Query: Please give measured response of the following entry: CC(=O)Oc1ccc(C2OC(=O)c3ccccc3N2C(C)=O)cc1 (stereo not drawn)
Result: 15.3

Query: Please give measured response of the following entry: C=C(CC)C(=O)c1ccc(OCC(=O)O)c(Cl)c1Cl
Result: 14.6

Query: Please give measured response of the following entry: COc1cc2c(cc1OC)C(Cc1ccc(O)cc1)N(C)CC2 (stereo not drawn)
Result: -6.53

Query: Please give measured response of the following entry: CN(C)CCCNc1ncnc2c1cnn2-c1ccccc1
Result: 8.67

Query: Please give measured response of the following entry: COc1cc2c(cc1O)CCN(C(=O)c1ccco1)C2C (stereo not drawn)
Result: 0.24

// moving on: another record for response
Query: Please give measured response of the following entry: COC(=O)c1ccc(CC(=O)c2ccc(O)cc2O)o1
Result: 7.39

###

assay.explanation: modulators of CIT2-GFP expression in yeast, confirmation, S. cerevisiae, GFP fusion, cherry picks, mother/daughter gates (AID 2274)
measurement.parameters: S. cerevisiae CIT2-GFP strain, flow cytometry, 3 h; measured here: daughter cell gate; at 10 µM; stronger effect = higher value
reported.metric: GFP response, % of DMSO (%)
Express it in %; write the number only.

// solved cases for GFP response, % of DMSO follow
Query: Please give measured GFP response, % of DMSO of the following entry: CCCc1cc(NCc2ccccn2)n2nc(C)c(-c3ccccc3)c2n1
Result: 81.7

Query: Please give measured GFP response, % of DMSO of the following entry: Oc1c(CN2CCN(c3ccc(F)cc3)CC2)cc(Cl)c2cccnc12
Result: 159

Query: Please give measured GFP response, % of DMSO of the following entry: Cc1cc(N2CCCCC2)n2nc(C)c(-c3ccccc3)c2n1
Result: 96.5

---
Query: Please give measured GFP response, % of DMSO of the following entry: CN(C)c1ccc(N=Cc2nc(-c3ccccc3)oc2OC(=O)c2ccccc2)cc1
Result: 103

Query: Please give measured GFP response, % of DMSO of the following entry: CCC(=O)c1ccc(N2CCN(C(=O)c3ccc(Br)cc3)CC2)c(F)c1
Result: 97.4

Query: Please give measured GFP response, % of DMSO of the following entry: CCOC(=O)/C(=C\c1cn(C)c2ccccc12)[N+](=O)[O-]
Result: 88.1

Query: Please give measured GFP response, % of DMSO of the following entry: CCOC(=O)c1ccc(NC(=O)c2nc(S(=O)(=O)Cc3ccccc3)ncc2Cl)cc1
Result: 94.8

Query: Please give measured GFP response, % of DMSO of the following entry: CCCN(c1ccccc1F)S(=O)(=O)c1cc(-c2cc(C)no2)ccc1OC
Result: 95.4

Query: Please give measured GFP response, % of DMSO of the following entry: O=C(Cn1cc(/C=C\[N+](=O)[O-])c2ccccc21)Nc1ccccc1
Result: 101

Query: Please give measured GFP response, % of DMSO of the following entry: COCCCN(C(=O)c1ccco1)c1nc(-c2cc(OC)ccc2OC)cs1
Result: 103

Query: Please give measured GFP response, % of DMSO of the following entry: Cc1ccc(-c2noc(CCC(=O)Nc3ccccc3C)n2)cc1
Result: 101

Query: Please give measured GFP response, % of DMSO of the following entry: OC1(c2ccc(F)cc2)CSC(=Nc2cccnc2)N1Cc1ccco1 (stereo not drawn)
Result: 106

Query: Please give measured GFP response, % of DMSO of the following entry: O=[N+]([O-])c1cc(CN2CCN(c3ccccc3)CC2)c(O)c2ncccc12
Result: 106

Query: Please give measured GFP response, % of DMSO of the following entry: O=C(COc1c(Br)cc(Br)c2cccnc12)N1CCc2ccccc2C1
Result: 102

Query: Please give measured GFP response, % of DMSO of the following entry: Cc1ccc(/C=N\NC(=O)c2cc(OCC(F)(F)F)ccc2OCC(F)(F)F)cc1
Result: 108

Query: Please give measured GFP response, % of DMSO of the following entry: CC(C)(C)NC(=O)CN(C(=O)CCC(=O)Nc1nccs1)c1ccc(F)cc1
Result: 99.2

Query: Please give measured GFP response, % of DMSO of the following entry: COc1ccc(CC(=O)Oc2ccccc2C)cc1
Result: 96.4

Query: Please give measured GFP response, % of DMSO of the following entry: COc1ccccc1N=Cc1nc(-c2ccccc2)oc1OC(C)=O
Result: 88.4

Query: Please give measured GFP response, % of DMSO of the following entry: Cc1ccc(/C=C/c2ccc(N(C)C)cc2)[n+](C)c1
Result: 121

Query: Please give measured GFP response, % of DMSO of the following entry: CCOC(=O)/C(=N\NC(=O)c1ccccc1)c1ccccc1
Result: 100

Query: Please give measured GFP response, % of DMSO of the following entry: O=S(=O)(Nc1nc2ccccc2nc1Cl)c1ccc2ccccc2c1
Result: 88.4

Query: Please give measured GFP response, % of DMSO of the following entry: COc1ccc(CC2=C(O)c3ccccc3C(=O)C2=O)cc1
Result: 81.6

Query: Please give measured GFP response, % of DMSO of the following entry: Cc1ccccc1OC1CCN(C(=O)C2CCC(=O)N(C3CCCC3)C2)CC1 (stereo not drawn)
Result: 95.4

###

assay.explanation: LAP4-GFP expression modulators in yeast, confirmation, cell-based, cherry picks, flow cytometry, mother/daughter gates (AID 2271);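 also: ratio of sample to DMSO plate mean so 100% equals DMSO level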
measurement.parameters: S. cerevisiae LAP4-GFP strain, 3 h, at 10 µM, stronger effect = higher value, 100 means same as DMSO control
A collection of compounds and their measured GFP response relative to DMSO
Express it in %; write the number only.

Query: Please give measured GFP response relative to DMSO of the following entry: CS(=O)(=O)N1N=C(c2ccco2)CC1c1ccccc1 (stereo unspecified)
Result: 102

Query: Please give measured GFP response relative to DMSO of the following entry: CCCc1[nH]nc2c1C(c1ccc(O)cc1OCC)C(C#N)=C(N)O2 (stereo unspecified)
Result: 92.9

Query: Please give measured GFP response relative to DMSO of the following entry: CCc1sc(C(=O)N2CCc3ccccc32)cc1C
Result: 114

Query: Please give measured GFP response relative to DMSO of the following entry: Cc1cc(O)ccc1NC(=O)c1ccccc1
Result: 96.7

Query: Please give measured GFP response relative to DMSO of the following entry: Oc1ccc(N=Nc2ccccc2)o1
Result: 180

Query: Please give measured GFP response relative to DMSO of the following entry: O=C1C(Cl)=C(Nc2ccc(F)cc2)C(=O)N1CCc1ccccc1
Result: 95.7

Query: Please give measured GFP response relative to DMSO of the following entry: Cc1ccc(N2C(=O)C3C4C=CC(CNC(=S)N5CCN(c6ccccn6)CC5)(O4)C3C2=O)cc1 (stereo unspecified)
Result: 113

Query: Please give measured GFP response relative to DMSO of the following entry: COc1ccc(-c2nnc(NC(=O)c3ccc(S(=O)(=O)N4COCC4(C)C)cc3)o2)cc1
Result: 95.3

---
Query: Please give measured GFP response relative to DMSO of the following entry: O=C(N/N=C/c1ccc(Cl)cc1Cl)c1cccc(F)c1
Result: 104

Query: Please give measured GFP response relative to DMSO of the following entry: O=C(O)c1ccn2c(C(=O)c3ccccc3)c(-c3ccccc3)cc2c1
Result: 113

Query: Please give measured GFP response relative to DMSO of the following entry: CCOC(=O)C1(CCCc2ccccc2)CCN(C(=O)c2cc(C)nn2CC)CC1
Result: 98.8
